Assay: Dissociation constant, pKa of the compound
Format: physicochemical
Recorded pKa, one value per entry.

>  <compound>
Cc1ccc(C(=O)O)cc1 [4-METHYLBENZOIC ACID]

>  <pKa>
4.37

$$$$
>  <compound>
O=C(O)c1c(C(=O)O)c(C(=O)O)c(C(=O)O)c(C(=O)O)c1C(=O)O [MELLITIC ACID]

>  <pKa>
1.15

$$$$
>  <compound>
O=C(O)c1ccc(O)cc1 [PARABEN]

>  <pKa>
4.57

$$$$
>  <compound>
O=C(O)c1cc(C(=O)O)c(C(=O)O)c(C(=O)O)c1C(=O)O [BENZENEPENTACARBOXYLIC ACID]

>  <pKa>
1.93

$$$$
>  <compound>
O=C(O)c1ccc(C(=O)O)c(C(=O)O)c1

>  <pKa>
2.84

$$$$
>  <compound>
O=C(O)c1cc(C(=O)O)c(C(=O)O)cc1C(=O)O [PYROMELLITIC ACID]

>  <pKa>
1.87

$$$$
>  <compound>
O=C(O)/C=C/c1ccc(O)c(O)c1 [CAFFEIC ACID]

>  <pKa>
4.58

$$$$
>  <compound>
O=C(O)c1ccc([N+](=O)[O-])cc1 [4-NITROBENZOIC ACID]

>  <pKa>
3.42

$$$$
>  <compound>
O=C(O)c1ccccc1Cl

>  <pKa>
2.97

$$$$
>  <compound>
O=C(O)c1cccc(O)c1 [3-HYDROXYBENZOIC ACID]

>  <pKa>
4.08

$$$$
>  <compound>
O=C(O)c1cc(C(=O)O)cc(C(=O)O)c1

>  <pKa>
2.98

$$$$
